assay_info: in vitro
experimental_setup: human, pooled human liver S9 fraction
experimental_readout: half-life at 1 µM (min)
Give the value in min but do not write min after it.

Solved cases below.
- molecule: "Cc1cc(C(=O)c2c(F)ccc(O)c2F)sc1-c1ccc(O)c(Cl)c1"
  value_observed: 2.9
- molecule: "Cn1cnc(S(=O)(=O)Nc2cccc(-c3ccc(C(=O)c4cc(F)c(F)c(O)c4F)s3)c2)c1"
  value_observed: 24.9
- molecule: "COc1c(Cl)cc(-c2ccc(C(=O)c3c(F)ccc(O)c3F)s2)cc1CN1CCNCC1"
  value_observed: 6.5
- molecule: "Cc1c(N)cccc1-c1ccc(C(=O)c2cc(F)c(F)c(O)c2F)s1"
  value_observed: 20.8
- molecule: "N#Cc1cc(-c2ccc(C(=O)c3c(F)ccc(O)c3F)s2)ccc1O"
  value_observed: 10.7

q: Name the recorded half-life at 1 µM of the molecule listed here: COc1ccc(-c2ccc(C(=O)c3c(F)ccc(O)c3F)s2)cc1Cl
a: 4.6
